Test system: rumen contents (lactic acid accumulation)
assay-text: Inhibition of lactic acid accumulation, second batch culture fermentation of rumen contents with glucose
Format: cell-based, bovine (rumen fistulated)
assay-setup: Table 8; 10 μg/ml; 6 h, 39° C.; 0 μg/ml: 40.47
Label yes (1) when Lactic Acid Accumulation (μ mol/ml) is at or above 5 μ mol/ml; otherwise label no (0).

Challenge: Has CCC(=O)OC(C(C)C(=O)O)C(C)C1OC2(CCC(C)(C3CCC(C)(C4OC(C5OC(O)(COC(=O)C6CC6)C(C)CC5C)CC4C)O3)O2)CC(O)C1C (stereo not shown) [Cyclopropylcarboxylate, laidlomycin cyclopropylcarboxylate] a recorded Lactic Acid Accumulation (μ mol/ml) greater than or equal to 5 μ mol/ml?
Response given: no (0)

Challenge: Has CCC(=O)OC(C(C)C(=O)O)C(C)C1OC2(CCC(C)(C3CCC(C)(C4OC(C5OC(O)(COC(=O)C6CCC6)C(C)CC5C)CC4C)O3)O2)CC(O)C1C (stereo not shown) [Cyclobutylcarboxylate, laidlomycin cyclobutylcarboxylate] a recorded Lactic Acid Accumulation (μ mol/ml) greater than or equal to 5 μ mol/ml?
Response given: no (0)

Challenge: Has CCC(=O)OC(C(C)C(=O)O)C(C)C1OC2(CCC(C)(C3CCC(C)(C4OC(C5OC(O)(COC(C)=O)C(C)CC5C)CC4C)O3)O2)CC(O)C1C (stereo not shown) a recorded Lactic Acid Accumulation (μ mol/ml) greater than or equal to 5 μ mol/ml?
Response given: no (0)

Challenge: Has CCCCCCCCCCCCCCCCCC(=O)OCC1(O)OC(C2CC(C)C(C3(C)CCC(C4(C)CCC5(CC(O)C(C)C(C(C)C(OC(=O)CC)C(C)C(=O)O)O5)O4)O3)O2)C(C)CC1C (stereo not shown) [L. C18, laidlomycin stearate] a recorded Lactic Acid Accumulation (μ mol/ml) greater than or equal to 5 μ mol/ml?
Response given: yes (1)

Challenge: Has CCC(=O)OC(C(C)C(=O)O)C(C)C1OC2(CCC(C)(C3CCC(C)(C4OC(C5OC(O)(COC(=O)C6CCCC6)C(C)CC5C)CC4C)O3)O2)CC(O)C1C (stereo not shown) [Cyclopentylcarboxylate, laidlomycin cyclopentylcarboxylate] a recorded Lactic Acid Accumulation (μ mol/ml) greater than or equal to 5 μ mol/ml?
Response given: no (0)

Challenge: Has CCCCC(=O)OCC1(O)OC(C2CC(C)C(C3(C)CCC(C4(C)CCC5(CC(O)C(C)C(C(C)C(OC(=O)CC)C(C)C(=O)O)O5)O4)O3)O2)C(C)CC1C (stereo not shown) [L. C5, laidlomycin pentanoate] a recorded Lactic Acid Accumulation (μ mol/ml) greater than or equal to 5 μ mol/ml?
Response given: no (0)
